Hey, just so you know, these numbers are from patent US7888363B2.

- Target Or Test System: hepatitis C virus RNA dependant polymerase (NS5B) (Hepatitis C virus genotype 1b, UniProt P26663)
- Sequence (P26663 2420-3010): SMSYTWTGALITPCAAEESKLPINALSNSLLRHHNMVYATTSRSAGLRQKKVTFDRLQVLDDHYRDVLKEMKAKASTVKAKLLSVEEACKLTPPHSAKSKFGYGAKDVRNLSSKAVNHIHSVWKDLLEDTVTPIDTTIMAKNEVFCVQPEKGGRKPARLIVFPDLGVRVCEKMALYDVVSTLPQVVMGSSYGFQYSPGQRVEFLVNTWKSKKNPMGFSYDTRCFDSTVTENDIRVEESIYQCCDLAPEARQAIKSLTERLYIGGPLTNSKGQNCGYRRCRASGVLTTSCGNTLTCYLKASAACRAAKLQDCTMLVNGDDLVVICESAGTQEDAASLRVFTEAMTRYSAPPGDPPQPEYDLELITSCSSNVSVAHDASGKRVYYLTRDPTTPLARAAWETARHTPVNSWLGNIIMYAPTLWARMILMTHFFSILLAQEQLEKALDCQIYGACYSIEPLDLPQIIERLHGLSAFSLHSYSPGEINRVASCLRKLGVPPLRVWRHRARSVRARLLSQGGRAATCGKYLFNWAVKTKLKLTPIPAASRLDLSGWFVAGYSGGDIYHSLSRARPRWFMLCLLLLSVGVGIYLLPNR
- Assay Details: Inhibition of NS5B RNA dependent RNA polymerase activity
- Assay type: biochemical
- Protocol Conditions: Table 1; HCV NS5B polymerase
pIC50: −log10 of the molar value.
Consider the following compounds and their measured pIC50 readings.

- Compound: "CN1CCC(N(C)C(=O)Cn2c(-c3ccoc3)c(C3CCCCC3)c3ccc(C(=O)O)cc32)CC1"
  pIC50: "> 6.70"
- Compound: "O=C(O)CCNC(=O)Cn1c(-c2ccoc2)c(C2CCCCC2)c2ccc(C(=O)O)cc21"
  pIC50: "> 6.70"
- Compound: "O=C(Cn1c(-c2ccoc2)c(C2CCCCC2)c2ccc(C(=O)O)cc21)NCc1ccco1"
  pIC50: "6.00 to 6.70"
- Compound: "CCN(CC)C1CCN(C(=O)Cn2c(-c3ccoc3)c(C3CCCCC3)c3ccc(C(=O)O)cc32)C1 (stereo not drawn)"
  pIC50: "> 6.70"
- Compound: "O=C(O)c1ccc2c(C3CCCCC3)c(-c3ccoc3)n(CC(=O)N3CCC[C@@H]3C(=O)O)c2c1"
  pIC50: "6.00 to 6.70"

**Query** Supply recorded pIC50 for CN(CC(=O)O)C(=O)Cn1c(-c2ccoc2)c(C2CCCCC2)c2ccc(C(=O)O)cc21 here.
**Result** > 6.70

**Query** Give reported pIC50 value for O=C(O)c1ccc2c(C3CCCCC3)c(-c3csc4ccccc34)n(CC(=O)N3CCOCC3)c2c1
**Result** 5.00 to 6.00

**Query** Provide one value: measured pIC50 of O=C(O)c1ccc2c(C3CCCCC3)c(-c3cccs3)n(CC(=O)N3CCC(N4CCCC4)CC3)c2c1
**Result** > 6.70

**Query** For the compound O=C(O)c1ccc2c(C3CCCCC3)c(-c3ccoc3)n(CC(=O)N3CCC(N4CCCC4)CC3)c2c1 , give its reported pIC50.
**Result** > 6.70

**Query** Give a short answer stating reported pIC50 for CN(C)C(=O)Cn1c(-c2ccsc2)c(C2CCCCC2)c2ccc(C(=O)O)cc21 .
**Result** > 6.70

**Query** Output pIC50 of O=C(O)c1ccc2c(C3CCCCC3)c(-c3ccco3)n(CC(=O)N3CCC(N4CCCC4)CC3)c2c1
**Result** > 6.70

**Query** Return reported pIC50. Input compound: CS(=O)(=O)c1ccc(CNC(=O)Cn2c(-c3ccoc3)c(C3CCCCC3)c3ccc(C(=O)O)cc32)cc1
**Result** > 6.70

**Query** Respond only with pIC50 recorded for CC1CCN(C(=O)Cn2c(-c3ccoc3)c(C3CCCCC3)c3ccc(C(=O)O)cc32)CC1
**Result** 6.00 to 6.70

**Query** Give the value of pIC50 reported for the following: O=C(Cn1c(-c2ccoc2)c(C2CCCCC2)c2ccc(C(=O)O)cc21)Nc1ccccc1
**Result** 6.00 to 6.70

**Query** Tell me pIC50 reported for CC(C)(C)Nc1nc(-c2c(C3CCCCC3)c3ccc(C(=O)O)cc3n2CC(=O)N2CCOCC2)cs1
**Result** 6.00 to 6.70

---

- Target Or Test System: hepatitis C virus RNA dependant polymerase (NS5B) (Hepatitis C virus genotype 1b, UniProt P26663)
- Assay Details: Inhibition of NS5B RNA dependent RNA polymerase activity
- Assay type: biochemical
- Protocol Conditions: Table 2; HCV NS5B polymerase
Listed below: IC50 values for each entry.

Recorded results for 2 compounds are shown here.
- Structure: "O=C(NS(=O)(=O)c1c(F)cccc1F)c1ccc2c(C3CCCCC3)c(-c3ccoc3)n(CC(=O)N3CCOCC3)c2c1"
  IC50: "< 200 nM"
- Structure: "O=C(NS(=O)(=O)c1ccc(Cl)s1)c1ccc2c(C3CCCCC3)c(-c3ccoc3)n(CC(=O)N3CCOCC3)c2c1"
  IC50: "< 200 nM"

// next item, IC50 requested
**Query** Look up IC50 of CS(=O)(=O)c1ccccc1S(=O)(=O)NC(=O)c1ccc2c(C3CCCCC3)c(-c3ccoc3)n(CC(=O)N3CCOCC3)c2c1 and report it.
**Result** < 200 nM

---

Overview of recorded IC50 for various molecules
- Target Or Test System: hepatitis C virus RNA dependant polymerase (NS5B) (Hepatitis C virus genotype 1b, UniProt P26663)
- Assay Details: Inhibition of NS5B RNA dependent RNA polymerase activity
- Type: biochemical
- Protocol Conditions: Table 1; HCV NS5B polymerase
- Protocol: A suitable assay is described in the examples. Inhibition of NS5B RNA Dependent RNA Polymerase Activity The compounds of the invention were tested for inhibitory activity against the hepatitis C virus RNA dependant polymerase (NS5B), according to protocol described in WO 03/010141

Consider the following illustrative entries.
- Molecule: "CNC(=O)Cn1c(-c2ccccn2)c(C2CCCCC2)c2ccc(C(=O)O)cc21 [Example 1143]"
  Metric Name: "IC50"
  Recorded Value: "1000 to 10000 nM"
- Molecule: "O=C(O)CN(Cc1ccccc1)C(=O)Cn1c(-c2ccoc2)c(C2CCCCC2)c2ccc(C(=O)O)cc21 [Example 1109]"
  Metric Name: "IC50"
  Recorded Value: "200 to 1000 nM"
- Molecule: "CCN(CCOC)C(=O)Cn1c(-c2ccoc2)c(C2CCCCC2)c2ccc(C(=O)O)cc21 [Example 1017]"
  Metric Name: "IC50"
  Recorded Value: "< 200 nM"
- Molecule: "O=C(O)c1ccc2c(C3CCCCC3)c(-c3ccoc3)n(CC(=O)N3C[C@@H](O)C[C@H]3C(=O)O)c2c1 [Example 1128]"
  Metric Name: "IC50"
  Recorded Value: "< 200 nM"
- Molecule: "CN(C)C(=O)CN1CCN(C(=O)Cn2c(-c3ccoc3)c(C3CCCCC3)c3ccc(C(=O)O)cc32)CC1 [Example 1130]"
  Metric Name: "IC50"
  Recorded Value: "< 200 nM"
- Molecule: "COCCN(CCOC)C(=O)Cn1c(-c2ccco2)c(C2CCCCC2)c2ccc(C(=O)O)cc21 [Example 1014]"
  Metric Name: "IC50"
  Recorded Value: "200 to 1000 nM"
- Molecule: "CN(C)c1ccc(NC(=O)Cn2c(-c3ccoc3)c(C3CCCCC3)c3ccc(C(=O)O)cc32)cc1 [Example 1105]"
  Metric Name: "IC50"
  Recorded Value: "200 to 1000 nM"
- Molecule: "CN(CCO)C(=O)Cn1c(-c2ccoc2)c(C2CCCCC2)c2ccc(C(=O)O)cc21 [Example 1090]"
  Metric Name: "IC50"
  Recorded Value: "< 200 nM"

**Query** Return IC50 (reported value) for this molecule: O=C(O)c1ccc2c(C3CCCCC3)c(-c3csc(N4CCCCC4)n3)n(CC(=O)N3CCOCC3)c2c1 [Example 1040]
**Result** 200 to 1000 nM

**Query** Please indicate IC50 recorded for CCCN(CCC)C(=O)Cn1c(-c2ccoc2)c(C2CCCCC2)c2ccc(C(=O)O)cc21 [Example 1011]
**Result** 200 to 1000 nM

**Query** Please supply the value of reported IC50 for the item O=C(Cn1c(-c2ccoc2)c(C2CCCCC2)c2ccc(C(=O)O)cc21)N[C@@H](Cc1c[nH]c2ccc(O)cc12)C(=O)O [Example 1081]
**Result** < 200 nM

**Query** Name the recorded IC50 of the item O=C(O)c1ccc2c(C3CCCCC3)c(-c3ccccc3)n(CC(=O)N3CCOCC3)c2c1 [Example 1023] in your answer.
**Result** < 200 nM

**Query** Find the measured IC50 of CN(C)C(=O)Cn1c(-c2ccccc2)c(C2CCCCC2)c2ccc(C(=O)O)cc21 [Example 1025] and report it.
**Result** < 200 nM

**Query** Tell us which IC50 value is on record for O=C(O)c1ccc2c(C3CCCC3)c(-c3ccccn3)n(CC(=O)N3CCCCC3)c2c1 [Example 1087]
**Result** 200 to 1000 nM

**Query** Give recorded IC50. O=C(O)c1ccc2c(C3CCCCC3)c(-c3ccoc3)n(CC(=O)N3CCOCC3)c2c1 [Example 1097]
**Result** < 200 nM

**Query** Using known records, supply IC50 for O=C(O)c1ccc2c(C3CCCC3)c(-c3ccccn3)n(CC(=O)N3CCCC3)c2c1 [Example 1086]
**Result** 200 to 1000 nM

---

- Target Or Test System: hepatitis C virus RNA dependant polymerase (NS5B) (Hepatitis C virus genotype 1b, UniProt P26663)
- Assay Details: Inhibition of NS5B RNA dependent RNA polymerase activity
- Type: biochemical
- Protocol Conditions: Table 1; HCV NS5B polymerase
Metric Name: IC50

- Structure: "O=C(O)c1ccc2c(C3CCCCC3)c(-c3ccoc3)n(CC(=O)N3CCC(CCO)CC3)c2c1"
  IC50: "< 200 nM"
- Structure: "CC(C)N(C)C(=O)Cn1c(-c2ccoc2)c(C2CCCCC2)c2ccc(C(=O)O)cc21"
  IC50: "< 200 nM"
- Structure: "O=C(Cn1c(-c2ccoc2)c(C2CCCCC2)c2ccc(C(=O)O)cc21)NCCCN1CCOCC1"
  IC50: "200 to 1000 nM"

Kindly review the next compound as well.
**Query** Answer with reported IC50 of CCN1CCN(C(=O)Cn2c(-c3ccoc3)c(C3CCCCC3)c3ccc(C(=O)O)cc32)CC1
**Result** < 200 nM
